Test system: SEM cells
test.name: AUC of viability dose-response curve (% viability x log10 dose units); higher = less sensitive
assay.context: RPMI 5 mM glucose + 10% FBS; 48 h
observable: AUC of viability dose-response curve

{"chemical.smiles": "CC(Oc1ccc(O)cc1)(P(=O)(O)O)P(=O)(O)O", "numeric.result": 420}
{"chemical.smiles": "Cn1c(CCCC(=O)O)nc2cc(N(CCCl)CCCl)ccc21", "numeric.result": 414}
{"chemical.smiles": "COc1cc2nc(-c3ccc(N4CCN(C)CC4)cc3)nc(NCCN3CCOCC3)c2cc1OC", "numeric.result": 290}
{"chemical.smiles": "CN[C@@H](C)C(=O)N[C@H]1CCCC[C@H]2CC[C@@H](C(=O)N[C@@H](c3ccccc3)c3cn(CCCCc4ccc(CCCCn5cc([C@@H](NC(=O)[C@@H]6CC[C@@H]7CCCC[C@H](NC(=O)[C@H](C)NC)C(=O)N76)c6ccccc6)nn5)cc4)nn3)N2C1=O", "numeric.result": 417}
{"chemical.smiles": "O=C(Oc1ccc([N+](=O)[O-])cc1)N1CCN(Cc2cccc(Oc3ccccc3)c2)CC1", "numeric.result": 453}

* * *

System: NOMO1
test.name: cell viability relative to DMSO control; higher = less cytotoxic
assay.context: HPLM + 10% dialyzed FBS; 48 h; 0.0632 µM
observable: cell viability (%)

{"compound": "Cc1c(OCC(F)(F)F)ccnc1C[S+]([O-])c1nc2ccccc2[nH]1 (stereo not given)", "numeric.result": 108}
{"compound": "N#Cc1c(C2CCNCC2)cc(-c2c(O)cccc2OCC2CC2)nc1N", "numeric.result": 103}
{"compound": "O=C1[O][Pt]2([NH]C3CCCCC3[NH]2)[O]C1=O (stereo not given)", "numeric.result": 141}
{"compound": "CCC1=C(C)CN(C(=O)NCCc2ccc(S(=O)(=O)NC(=O)N[C@H]3CC[C@H](C)CC3)cc2)C1=O", "numeric.result": 104}
{"compound": "c1cc(-c2sc(-c3ccncc3)c(-c3ccncc3)c2-c2ccncc2)ccn1", "numeric.result": 108}

* * *

Reported cell viability values follow for various molecules
Test system: NOMO1
test.name: cell viability relative to DMSO control; higher = less cytotoxic
assay.context: HPLM + 10% dialyzed FBS; 48 h; 0.00702 µM

{"molecule": "NC/1=N/C(=O)N(/C=C1)[C@H]2CC[C@@H](CO)O2", "cell viability (%)": 107}
{"molecule": "CC1(C)O[C@H]2CC(=O)OC[C@]23[C@H]2CC[C@@]4(C)[C@H](c5ccoc5)OC(=O)[C@H]5O[C@]54[C@]2(C)C(=O)C[C@@H]13", "cell viability (%)": 98.8}
{"molecule": "C[C@@]12OC(=O)[C@@]1(NC(=O)[C@@H]2CCCl)[C@@H](O)[C@H]\\3CCC\\C=C3", "cell viability (%)": 104}
{"molecule": "CCCCOc1ccc(C(=O)Nc2ccc(F)cc2F)cc1", "cell viability (%)": 91.4}
{"molecule": "N/C(=N\\C(=O)c1nc(Cl)c(N)nc1N)NCc1ccccc1", "cell viability (%)": 90.7}
{"molecule": "c1ccc(-c2nn3c(c2-c2ccnc4cc(OCCN5CCOCC5)ccc24)CCC3)nc1", "cell viability (%)": 113}
{"molecule": "Cn1c(=O)c2c(ncn2CC(O)CO)n(C)c1=O (stereo not given)", "cell viability (%)": 114}
{"molecule": "O=C1[O][Pt]2([NH]C3CCCCC3[NH]2)[O]C1=O (stereo not given)", "cell viability (%)": 119}
{"molecule": "CCOc1ccccc1OCCNC(C)Cc1ccc(OC)c([S+](N)(=O)[O-])c1 (stereo not given)", "cell viability (%)": 96.8}
{"molecule": "CC(C)(O)CNc1nc(Nc2ccnc(C(F)(F)F)c2)nc(-c2cccc(C(F)(F)F)n2)n1", "cell viability (%)": 131}

* * *

Measured cell viability, listed per entry.
Tested on: SEM cells
test.name: cell viability relative to DMSO control; higher = less cytotoxic
assay.context: RPMI 5 mM glucose + 10% dialyzed FBS; 48 h; 46.1 µM
observable: cell viability (%)

{"chemical.smiles": "NC\\1=N\\C(=O)N(\\C=N1)[C@H]2C[C@H](O)[C@@H](CO)O2", "reading.unit": "%", "numeric.result": 21.2}
{"chemical.smiles": "CN(C)[C@H]\\1[C@@H]2[C@@H](O)[C@@H]\\3C(=C)C4=C(C(=CC=C4)O)C(=O)C3=C(\\O)[C@@]2(O)C(=O)\\C(=C1O)C(N)=O", "reading.unit": "%", "numeric.result": 91.6}
{"chemical.smiles": "Cn1cc(-c2ccc3ncc(Cc4ccc5ncccc5c4)n3n2)cn1", "reading.unit": "%", "numeric.result": 67.3}
{"chemical.smiles": "c1ccc(-c2nn3c(c2-c2ccnc4cc(OCCN5CCOCC5)ccc24)CCC3)nc1", "reading.unit": "%", "numeric.result": 82.2}

* * *

System: SEM cells
test.name: cell viability relative to DMSO control; higher = less cytotoxic
assay.context: RPMI 5 mM glucose + 10% dialyzed FBS; 48 h; 0.00234 µM
Measured cell viability accompanies every entry in the list below.

{"molecule": "Cn1cc(-c2ccc3ncc(Cc4ccc5ncccc5c4)n3n2)cn1", "cell viability": "103%"}
{"molecule": "CCOc1ccccc1OCCNC(C)Cc1ccc(OC)c([S+](N)(=O)[O-])c1 (stereo unspecified)", "cell viability": "88.9%"}
{"molecule": "CCC1=C(C)CN(C(=O)NCCc2ccc(S(=O)(=O)NC(=O)N[C@H]3CC[C@H](C)CC3)cc2)C1=O", "cell viability": "87.6%"}
{"molecule": "COc1cc2c(NC3CCN(C(C)C)CC3)nc(C3CCCCC3)nc2cc1OCCCN1CCCC1", "cell viability": "114%"}
{"molecule": "OC1=C(C=CC=C1)C2=CC=C(C=C2)C3=CSC4=C3C(=C(/C#N)C(=O)N4)/O", "cell viability": "117%"}
{"molecule": "COc1ccc(Cn2ccc3ccc(C(=O)NO)cc32)cc1", "cell viability": "110%"}
{"molecule": "N/C(=N\\C(=O)c1nc(Cl)c(N)nc1N)NCc1ccccc1", "cell viability": "103%"}
{"molecule": "c1ccc2c(-c3cnn4cc(-c5ccc(N6CCNCC6)cc5)cnc34)ccnc2c1", "cell viability": "72.2%"}
{"molecule": "COC(=O)N[C@H](C(=O)N[C@@H](Cc1ccccc1)[C@@H](O)CN(Cc1ccc(-c2ccccn2)cc1)NC(=O)[C@@H](NC(=O)OC)C(C)(C)C)C(C)(C)C", "cell viability": "118%"}
{"molecule": "Nc1ccc([S+](=O)([O-])Nc2ccccn2)cc1", "cell viability": "109%"}
{"molecule": "CCC(=O)O[C@@]1([C@H](C)C[C@H]2[C@@H]3C[C@H](F)\\C4=C\\C(=O)\\C=C/[C@]4(C)[C@@]3(F)[C@@H](O)C[C@]12C)C(=O)SCF", "cell viability": "124%"}

* * *

Test system: SEM cells
test.name: cell viability relative to DMSO control; higher = less cytotoxic
assay.context: RPMI 5 mM glucose + 10% dialyzed FBS; 48 h; 0.19 µM

{"compound": "Nc1ccc([S+](=O)([O-])Nc2ccccn2)cc1", "cell viability [%]": 101}
{"compound": "NC12CC3CC(CC(C3)C1)C2", "cell viability [%]": 115}
{"compound": "CC(C)c1ccc2oc3nc(N)c(C(=O)O)cc3c(=O)c2c1", "cell viability [%]": 131}
{"compound": "C[C@@H]1CN(CC(=O)N2CC(C)(C)c3ncc(Cc4ccc(F)cc4)cc32)[C@@H](CN2CCOC[C@H]2C)CN1", "cell viability [%]": 114}
{"compound": "Cc1ccccc1C(C(=O)NC1CCCCC1)N(C(=O)CNc1ccc(C#N)cc1)c1cccc(F)c1 (stereo not drawn)", "cell viability [%]": 103}
{"compound": "Cc1cc(SCc2sc(-c3ccc(C(F)(F)F)c(F)c3)nc2C)ccc1OCC(=O)O", "cell viability [%]": 104}
{"compound": "CN(C)c1nc(N(C)C)nc(N(C)C)n1", "cell viability [%]": 110}
{"compound": "OC1=C(C=CC=C1)C2=CC=C(C=C2)C3=CSC4=C3C(=C(/C#N)C(=O)N4)/O", "cell viability [%]": 126}
